Experiment: Acute toxicity was determined in mice upon peroral administration
Format: organism-based
Conditions: mouse, in vivo, po
Endpoint: LD50 (mg/kg)
Answer in mg/kg, number only, no unit symbol.

LD50 reading for COc1ccccc1OCC1SCCN1C(=O)Cn1ccnc1 (stereo not given) : 966

LD50 reading for COc1ccccc1OCC1SCCN1C(=O)CN1CCN(C)CC1.Cl.Cl (stereo not given) : 818

====

Test system: Cavia porcellus
Assay: Antitussive activity was evaluated by inhibition of irritant aerosol-induced coughing by (po) administration in guinea pig
Assay type: functional
Would you mind telling me the reported ED50 of each entry?
Answer in mg/kg, number only, no unit symbol.

ED50 reading for CC(=O)SCC(=O)N1CCSC1COc1ccccc1O (stereo not drawn) : 60

ED50 reading for COc1ccc2c(c1)[C@]13CCCC[C@@H]1[C@H](C2)N(C)CC3 [DEXTROMETHORPHAN] : 48

ED50 reading for COc1ccccc1OCC1SCCN1C(=O)CSC(C)=O (stereo not drawn) [GUAISTEINE] : 26

====

Would you mind telling me the reported LD50 of each entry?
Assay: Acute toxicity was determined in mice upon peroral administration
Assay type: organism-based
Details: mouse, in vivo, po

LD50 reading for CNC(=O)CC(=O)N1CCSC1COc1ccccc1OC (stereo not drawn) : > 1000 mg/kg

LD50 reading for COc1ccccc1OCC1SCCN1C(=O)CNC(C)=O (stereo not drawn) : > 1000 mg/kg

LD50 reading for COc1ccccc1OCC1SCCN1C(=O)C[S+](C)[O-] (stereo not drawn) : > 1000 mg/kg
